# systemName: TLR7 (Homo sapiens (Human))
# Sequence (Q9NYK1 27-1049): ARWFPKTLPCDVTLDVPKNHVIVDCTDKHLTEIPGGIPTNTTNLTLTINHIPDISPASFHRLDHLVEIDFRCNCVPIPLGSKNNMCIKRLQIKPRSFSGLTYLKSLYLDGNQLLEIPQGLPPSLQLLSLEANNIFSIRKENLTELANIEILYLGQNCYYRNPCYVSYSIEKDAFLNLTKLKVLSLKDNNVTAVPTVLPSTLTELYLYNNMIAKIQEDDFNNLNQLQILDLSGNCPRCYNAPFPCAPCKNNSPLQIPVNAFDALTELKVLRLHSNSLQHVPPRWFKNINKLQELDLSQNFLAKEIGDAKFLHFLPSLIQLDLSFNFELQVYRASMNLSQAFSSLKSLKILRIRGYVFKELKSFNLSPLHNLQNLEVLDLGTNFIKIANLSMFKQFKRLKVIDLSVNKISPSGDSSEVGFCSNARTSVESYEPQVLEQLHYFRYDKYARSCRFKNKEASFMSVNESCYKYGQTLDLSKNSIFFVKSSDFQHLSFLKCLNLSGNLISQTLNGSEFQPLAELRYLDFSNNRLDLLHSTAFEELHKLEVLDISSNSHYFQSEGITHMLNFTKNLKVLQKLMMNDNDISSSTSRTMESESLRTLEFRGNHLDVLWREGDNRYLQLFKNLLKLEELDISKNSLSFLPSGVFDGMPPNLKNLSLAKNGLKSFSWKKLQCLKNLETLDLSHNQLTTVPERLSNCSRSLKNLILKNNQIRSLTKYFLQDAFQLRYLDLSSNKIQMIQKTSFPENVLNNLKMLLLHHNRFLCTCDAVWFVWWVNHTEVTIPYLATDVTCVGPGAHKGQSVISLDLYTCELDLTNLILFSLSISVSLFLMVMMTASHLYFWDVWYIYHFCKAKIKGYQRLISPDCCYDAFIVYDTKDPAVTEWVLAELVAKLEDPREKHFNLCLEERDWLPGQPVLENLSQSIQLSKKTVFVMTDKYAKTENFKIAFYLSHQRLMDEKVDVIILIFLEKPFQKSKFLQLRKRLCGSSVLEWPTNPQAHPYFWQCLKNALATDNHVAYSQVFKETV
# test: TLR7 human peripheral blood mononuclear cell (PBMC) cell-based assay (GS-986 as agonist; IL-6 and IFNα readout)
# details: human PBMCs, TLR7 agonist GS-986 at 400 nM, 6 hours, antagonist potency; read-out: TLR-7 EC50
measuredProperty: EC50
Output should be the measured figure followed by the unit it is expressed in.

Q) Lab request: please report EC50 under test system TLR7 (Homo sapiens (Human)) for Cc1c(-c2[nH]c3sc(C4CCNCC4)c(C)c3c2C(C)C)cn2ncnc2c1C
A) 100 pM

Q) Lab request: please report EC50 under test system TLR7 (Homo sapiens (Human)) for Cc1c(C2CCN(C(=O)[C@@H]3CCCN3)CC2)sc2[nH]c(-c3cc(C)c4ncnn4c3)c(C(C)C)c12
A) 210 pM

Q) Lab request: please report EC50 under test system TLR7 (Homo sapiens (Human)) for Cc1c(C2CCN(C(=O)CN3CCCC3)CC2)sc2[nH]c(-c3cc(C)c4ncnn4c3)c(C(C)C)c12
A) 60 pM

Q) Lab request: please report EC50 under test system TLR7 (Homo sapiens (Human)) for Cc1c(-c2[nH]c3sc([C@@H]4C[C@@H]5C[C@H]4CN5CCS(C)(=O)=O)cc3c2C(C)C)cn2ncnc2c1C
A) 450 pM

Q) Lab request: please report EC50 under test system TLR7 (Homo sapiens (Human)) for Cc1c(C2CCN(C(=O)C3COCC(C)(C)N3)CC2)sc2[nH]c(-c3cc(C)c4ncnn4c3)c(C(C)C)c12 (centres unmarked)
A) 590 pM

Q) Lab request: please report EC50 under test system TLR7 (Homo sapiens (Human)) for Cc1c(C2CCN(C(=O)[C@H]3CC(F)(F)CN3)CC2)sc2[nH]c(-c3cc(C)c4ncnn4c3)c(C(C)C)c12
A) 1180 pM

Q) Lab request: please report EC50 under test system TLR7 (Homo sapiens (Human)) for Cc1c(-c2[nH]c3sc([C@@H]4C[C@@H]5C[C@H]4CN5C(C)C(N)=O)c(C)c3c2C(C)C)cn2ncnc2c1C (some centres unmarked) [Example 81]
A) 190 pM

Q) Lab request: please report EC50 under test system TLR7 (Homo sapiens (Human)) for Cc1c(-c2[nH]c3sc(C4CC5(CCN(CC(N)=O)C5)C4)c(C)c3c2C(C)C)cn2ncnc2c1C (single isomer, unassigned) [Example 85]
A) 350 pM

Q) Lab request: please report EC50 under test system TLR7 (Homo sapiens (Human)) for Cc1c(-c2[nH]c3sc(C4CCN(CC5CCN(C)C5=O)CC4)c(C)c3c2C(C)C)cn2ncnc2c1C (centres unmarked)
A) 720 pM

Q) Lab request: please report EC50 under test system TLR7 (Homo sapiens (Human)) for Cc1c(C2CCN(C(=O)[C@@H]3COCCN3C)CC2)sc2[nH]c(-c3cc(C)c4ncnn4c3)c(C(C)C)c12
A) 1120 pM

Q) Lab request: please report EC50 under test system TLR7 (Homo sapiens (Human)) for Cc1c(C2CCN(CC(N)=O)CC2)sc2[nH]c(-c3cc(C)c4ncnn4c3)c(C(C)C)c12
A) 640 pM

Q) Lab request: please report EC50 under test system TLR7 (Homo sapiens (Human)) for Cc1c(C2CCN(C(=O)[C@@H]3CCCN3C)CC2)sc2[nH]c(-c3cc(C)c4ncnn4c3)c(C(C)C)c12
A) 430 pM

Q) Lab request: please report EC50 under test system TLR7 (Homo sapiens (Human)) for Cc1c(-c2[nH]c3sc(C4CCC45CN(CC(N)=O)C5)c(C)c3c2C(C)C)cn2ncnc2c1C (single isomer, unassigned) [Example 316]
A) 47300 pM

Q) Lab request: please report EC50 under test system TLR7 (Homo sapiens (Human)) for Cc1c(-c2[nH]c3sc([C@@H]4C[C@@H]5CC[C@H]4CN5Cc4cn(C)nn4)c(C)c3c2C(C)C)cn2ncnc2c1C (single isomer, unassigned)
A) 2740 pM
